measurement notes: Cytotoxicity against human HFF cells after 3 to 8 days by crystal voilet staining
Format: cell-based
// values below are reported CC50

CCOc1nc(N)nc2c1ncn2/C=C1/CC1(CO)CO :: > 300 µM
CCCNc1nc(N)nc2c1ncn2/C=C1/CC1(CO)CO :: > 300 µM
CCCCCCCCSc1nc(N)nc2c1ncn2/C=C1/CC1(CO)CO :: > 300 µM
Nc1nc(N)c2nc[nH]c2n1 [2,6-DIAMINOPURINE] :: > 300 µM

Ask | // returns reported CC50 for input `CCCCSc1nc(N)nc2c1ncn2/C=C1/CC1(CO)CO`
Reply | > 300 µM

Ask | // returns reported CC50 for input `Nc1nc(NC2CCCCC2)c2ncn(/C=C3/CC3(CO)CO)c2n1`
Reply | > 300 µM

Ask | // returns reported CC50 for input `CCCCCCOc1nc(N)nc2c1ncn2/C=C1/CC1(CO)CO`
Reply | > 200 µM

Ask | // returns reported CC50 for input `Nc1nc(NC2CC2)c2ncn(/C=C3/CC3(CO)CO)c2n1`
Reply | > 300 µM

Ask | // returns reported CC50 for input `Nc1nc(SC2CCCC2)c2ncn(/C=C3/CC3(CO)CO)c2n1`
Reply | > 300 µM

Ask | // returns reported CC50 for input `CCCCCCCCOc1nc(N)nc2c1ncn2/C=C1/CC1(CO)CO`
Reply | > 300 µM

Ask | // returns reported CC50 for input `CC(C)CSc1nc(N)nc2c1ncn2/C=C1/CC1(CO)CO`
Reply | > 300 µM

Ask | // returns reported CC50 for input `COc1nc(N)nc2nc[nH]c12`
Reply | 171 µM

====

measurement notes: Cytotoxicity against human BCBL1 cells after 7 days by Cell-Titer Glo assay
Format: cell-based
reported metric: CC50 at 168 h

CCCCOc1nc(N)nc2c1ncn2/C=C1/CC1(CO)CO :: > 20 µM
CCCOc1nc(N)nc2c1ncn2/C=C1/CC1(CO)CO :: > 20 µM
CC(C)Nc1nc(N)nc2c1ncn2/C=C1/CC1(CO)CO :: > 20 µM
CCCSc1nc(N)nc2c1ncn2/C=C1/CC1(CO)CO :: > 20 µM

Shift focus to the following entry.
Ask | // returns reported CC50 at 168 h for input `Nc1nc(N)c2nc[nH]c2n1`
Reply | 67 µM

====

measurement notes: Cytotoxicity against human BCBL1 cells after 7 days by Cell-Titer Glo assay
Format: cell-based
reported metric: CC50 at 168 h

Previously resolved entries follow.
CC(C)CNc1nc(N)nc2c1ncn2/C=C1/CC1(CO)CO :: > 20 µM
CCCCCOc1nc(N)nc2c1ncn2/C=C1/CC1(CO)CO :: > 20 µM
CN(C)c1nc(N)nc2c1ncn2/C=C1/CC1(CO)CO :: > 20 µM

Ask | // returns reported CC50 at 168 h for input `CCCCCCSc1nc(N)nc2c1ncn2/C=C1/CC1(CO)CO`
Reply | > 20 µM

Ask | // returns reported CC50 at 168 h for input `CCCCNc1nc(N)nc2c1ncn2/C=C1/CC1(CO)CO`
Reply | > 20 µM

Ask | // returns reported CC50 at 168 h for input `Nc1nc(NC2CCCC2)c2ncn(/C=C3/CC3(CO)CO)c2n1`
Reply | 71.7 µM

====

// values below are reported CC50 at 168 h
measurement notes: Cytotoxicity against human HSB2 cells after 7 days by Cell-Titer Glo assay
Format: cell-based, CCRF-HSB-2

Previously resolved entries follow.
CNc1nc(N)nc2c1ncn2/C=C1/CC1(CO)CO :: > 20 µM
CCCCCCCCOc1nc(N)nc2c1ncn2/C=C1/CC1(CO)CO :: > 20 µM
CCCCOc1nc(N)nc2c1ncn2/C=C1/CC1(CO)CO :: > 20 µM
CCCOc1nc(N)nc2c1ncn2/C=C1/CC1(CO)CO :: > 20 µM

Shift focus to the following entry.
Ask | // returns reported CC50 at 168 h for input `CCCCCCCCSc1nc(N)nc2c1ncn2/C=C1/CC1(CO)CO`
Reply | 60 µM

====

measurement notes: Cytotoxicity against human BCBL1 cells after 7 days by Cell-Titer Glo assay
Format: cell-based
reported metric: CC50 at 168 h

COc1nc(N)nc2nc[nH]c12 :: 51 µM

Ask | // returns reported CC50 at 168 h for input `Nc1nc(OCC(F)(F)F)c2ncn(/C=C3/CC3(CO)CO)c2n1`
Reply | > 20 µM

Ask | // returns reported CC50 at 168 h for input `COCCOc1nc(N)nc2c1ncn2/C=C1/CC1(CO)CO`
Reply | > 20 µM

Ask | // returns reported CC50 at 168 h for input `Nc1nc(NCc2ccccc2)c2ncn(/C=C3/CC3(CO)CO)c2n1`
Reply | 19.9 µM

Ask | // returns reported CC50 at 168 h for input `Nc1nc(N2CCOCC2)c2ncn(/C=C3/CC3(CO)CO)c2n1`
Reply | > 20 µM

Ask | // returns reported CC50 at 168 h for input `Nc1nc(NC2CCCCC2)c2ncn(/C=C3/CC3(CO)CO)c2n1`
Reply | > 20 µM

Ask | // returns reported CC50 at 168 h for input `CNc1nc(N)nc2c1ncn2/C=C1/CC1(CO)CO`
Reply | 67 µM

Ask | // returns reported CC50 at 168 h for input `Nc1nc(OCc2ccccc2)c2ncn(/C=C3/CC3(CO)CO)c2n1`
Reply | > 20 µM

Ask | // returns reported CC50 at 168 h for input `CCCCSc1nc(N)nc2c1ncn2/C=C1/CC1(CO)CO`
Reply | > 20 µM

Ask | // returns reported CC50 at 168 h for input `CCOc1nc(N)nc2c1ncn2/C=C1/CC1(CO)CO`
Reply | > 20 µM

Ask | // returns reported CC50 at 168 h for input `CC(C)Sc1nc(N)nc2c1ncn2/C=C1/CC1(CO)CO`
Reply | > 20 µM

Ask | // returns reported CC50 at 168 h for input `CCCCCCOc1nc(N)nc2c1ncn2/C=C1/CC1(CO)CO`
Reply | > 20 µM

====

measurement notes: Cytotoxicity against human HSB2 cells after 7 days by Cell-Titer Glo assay
Assay type: cell-based, CCRF-HSB-2
reported metric: CC50 at 168 h

Ask | // returns reported CC50 at 168 h for input Nc1nc(N)c2nc[nH]c2n1 [2,6-DIAMINOPURINE]
Reply | > 20 µM

Ask | // returns reported CC50 at 168 h for input `C=CCOc1nc(N)nc2c1ncn2/C=C1/CC1(CO)CO`
Reply | > 20 µM

Ask | // returns reported CC50 at 168 h for input `CCOc1nc(N)nc2c1ncn2/C=C1/CC1(CO)CO`
Reply | > 20 µM

Ask | // returns reported CC50 at 168 h for input `Nc1nc(NC2CCCC2)c2ncn(/C=C3/CC3(CO)CO)c2n1`
Reply | > 20 µM

Ask | // returns reported CC50 at 168 h for input `COCCOc1nc(N)nc2c1ncn2/C=C1/CC1(CO)CO`
Reply | > 20 µM

Ask | // returns reported CC50 at 168 h for input `Nc1nc(SC2CCCC2)c2ncn(/C=C3/CC3(CO)CO)c2n1`
Reply | 91 µM

====

Test system: Human alphaherpesvirus 2
measurement notes: Antiviral activity against HSV-2 infected in human HFF cells assessed as reduction in cytopathic effect after 3 days by crystal violet staining
Type: functional, organism-based
assay context: Human alphaherpesvirus 2, HFF, 72 h
reported metric: IC50

Nc1nc(N)c2nc[nH]c2n1 :: > 300 µM
Nc1nc(N2CCOCC2)c2ncn(/C=C3/CC3(CO)CO)c2n1 :: > 300 µM
Nc1nc(NC2CCCC2)c2ncn(/C=C3/CC3(CO)CO)c2n1 :: > 60 µM
CC(C)CNc1nc(N)nc2c1ncn2/C=C1/CC1(CO)CO :: > 300 µM
Nc1nc(OCC(F)(F)F)c2ncn(/C=C3/CC3(CO)CO)c2n1 :: > 300 µM

Ask | // returns reported IC50 for input `Nc1nc2c(ncn2COCCO)c(=O)[nH]1`
Reply | 2.8 µM

Ask | // returns reported IC50 for input `CCCSc1nc(N)nc2c1ncn2/C=C1/CC1(CO)CO`
Reply | > 300 µM

Ask | // returns reported IC50 for input `CCCCNc1nc(N)nc2c1ncn2/C=C1/CC1(CO)CO`
Reply | > 300 µM

====

measurement notes: Cytotoxicity against human Akata cells after 7 days by Cell-Titer Glo assay
Type: cell-based
// values below are reported CC50 at 168 h

Nc1nc(OCC(F)(F)F)c2ncn(/C=C3/CC3(CO)CO)c2n1 :: > 20 µM

Ask | // returns reported CC50 at 168 h for input `CC(C)CSc1nc(N)nc2c1ncn2/C=C1/CC1(CO)CO`
Reply | > 20 µM

Ask | // returns reported CC50 at 168 h for input `CC(C)Sc1nc(N)nc2c1ncn2/C=C1/CC1(CO)CO`
Reply | > 20 µM

Ask | // returns reported CC50 at 168 h for input `CNc1nc(N)nc2c1ncn2/C=C1/CC1(CO)CO`
Reply | > 24 µM

Ask | // returns reported CC50 at 168 h for input `CSc1nc(N)nc2c1ncn2/C=C1/CC1(CO)CO`
Reply | > 20 µM

Ask | // returns reported CC50 at 168 h for input `CCCNc1nc(N)nc2c1ncn2/C=C1/CC1(CO)CO`
Reply | > 24 µM

Ask | // returns reported CC50 at 168 h for input `CCCCCCCCSc1nc(N)nc2c1ncn2/C=C1/CC1(CO)CO`
Reply | > 20 µM

Ask | // returns reported CC50 at 168 h for input `Nc1nc(SC2CCCC2)c2ncn(/C=C3/CC3(CO)CO)c2n1`
Reply | > 20 µM

Ask | // returns reported CC50 at 168 h for input `Nc1nc(NC2CCCCC2)c2ncn(/C=C3/CC3(CO)CO)c2n1`
Reply | > 24 µM
